Attribute: pEC50
EXPERIMENTAL TARGET: T1, Fusion protein of extracellular domain of human TIGIT and mouse IgG2a Fc fragment (human TIGIT ECD-mFc) (human)
T1 construct: The entry includes the signal peptide (limits not recoverable) and the mouse IgG2a Fc
T1 chain: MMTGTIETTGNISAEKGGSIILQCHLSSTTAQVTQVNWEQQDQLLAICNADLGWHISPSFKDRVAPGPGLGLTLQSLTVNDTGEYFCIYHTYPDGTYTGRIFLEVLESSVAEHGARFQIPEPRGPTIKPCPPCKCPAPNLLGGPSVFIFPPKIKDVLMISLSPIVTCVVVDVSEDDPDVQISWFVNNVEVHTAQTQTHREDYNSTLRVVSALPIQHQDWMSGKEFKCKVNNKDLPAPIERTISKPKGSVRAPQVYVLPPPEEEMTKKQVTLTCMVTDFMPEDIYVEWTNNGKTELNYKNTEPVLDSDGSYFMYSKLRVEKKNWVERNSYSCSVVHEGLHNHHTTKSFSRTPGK
ASSAY: ELISA, human TIGIT ECD-mFc
pEC50: −log10 of the molar value.

BINDER: TIGIT-006-H5L1 (antibody, V domains shown, Humanized anti-TIGIT antibody) VH: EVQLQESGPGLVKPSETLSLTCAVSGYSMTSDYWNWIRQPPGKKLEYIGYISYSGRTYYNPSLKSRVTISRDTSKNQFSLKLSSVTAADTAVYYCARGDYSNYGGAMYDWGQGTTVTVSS VL: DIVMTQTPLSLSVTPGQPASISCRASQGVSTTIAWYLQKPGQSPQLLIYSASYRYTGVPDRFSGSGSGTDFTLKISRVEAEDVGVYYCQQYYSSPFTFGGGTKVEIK
pEC50: 10.97
//
BINDER: TIGIT-006-H4L1 (antibody, V domains shown, Humanized anti-TIGIT antibody) VH: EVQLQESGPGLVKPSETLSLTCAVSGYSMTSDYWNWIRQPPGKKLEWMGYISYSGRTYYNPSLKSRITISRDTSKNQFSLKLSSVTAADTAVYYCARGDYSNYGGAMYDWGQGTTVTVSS VL: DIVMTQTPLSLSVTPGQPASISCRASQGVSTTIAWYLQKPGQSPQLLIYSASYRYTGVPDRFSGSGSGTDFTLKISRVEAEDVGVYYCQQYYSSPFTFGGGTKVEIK
pEC50: 11.07
//
BINDER: TIGIT-006-H1L1 (antibody, V domains shown, Humanized anti-TIGIT antibody) VH: EVQLQESGPGLVKPSETLSLTCAVSGYSITSDYWNWIRQPPGKGLEWIGYISYSGRTYYNPSLKSRVTISRDTSKNQFSLKLSSVTAADTAVYYCARGDYSNYGGAMYDWGQGTTVTVSS VL: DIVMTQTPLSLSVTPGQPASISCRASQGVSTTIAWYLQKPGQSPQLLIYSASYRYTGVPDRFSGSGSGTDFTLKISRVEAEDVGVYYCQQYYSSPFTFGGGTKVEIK
pEC50: 10.73
